System: HEK-293T
Assay: Incucyte cell viability with HEK293T; also: unitless GR value; below 1 slowed growth and below 0 cell loss
Assay type: toxicity, cell-based
Settings: human, 6 h, 10 µM, compound concentration 10 uM, replicate number 1
The label depends only on Growth Rate: fulfilled if it is at least 0.4, not fulfilled if it is smaller.

These solved cases illustrate the format of a correct answer.
-- ask Decide: Growth Rate of CC(C)(C)C1CCc2c(sc(NC(=O)c3ccco3)c2C(=O)O)C1 (configuration not stated) >= 0.4?
-- reply not fulfilled

-- ask Decide: Growth Rate of Cl.Clc1ccc(OC[C@H]2CCN2)cn1 >= 0.4?
-- reply fulfilled

-- ask Decide: Growth Rate of O=C(CCCCCCc1ccccc1)c1ncc(-c2ccccn2)o1 >= 0.4?
-- reply fulfilled

-- ask Decide: Growth Rate of CC(=O)O[C@H]1C(=O)[C@@]2(C)[C@H]([C@H](OC(=O)c3ccccc3)[C@]3(O)C[C@H](OC(=O)[C@H](O)[C@@H](NC(=O)c4ccccc4)c4ccccc4)C(C)=C1C3(C)C)[C@]1(OC(C)=O)CO[C@@H]1C[C@@H]2O >= 0.4?
-- reply not fulfilled

-- ask Decide: Growth Rate of Cc1cc(Nc2ncc(Cl)c(Nc3ccccc3S(=O)(=O)C(C)C)n2)c(OC(C)C)cc1C1CCNCC1 >= 0.4?
-- reply not fulfilled

Others:
-- ask Decide: Growth Rate of CC[N+](CC)(CC)CCOc1ccc(/C=C/c2ccccc2)cc1.[I-] [STILONIUM IODIDE] >= 0.4?
-- reply not fulfilled

-- ask Decide: Growth Rate of CC[C@H](Nc1ncnc2[nH]cnc12)c1nc2cccc(F)c2c(=O)n1-c1ccccc1 >= 0.4?
-- reply not fulfilled

-- ask Decide: Growth Rate of CC(C)(C)c1cnc(CSc2cnc(NC(=O)C3CCN(CC(=O)NCCOCCOCCOCCNc4cccc5c4C(=O)N(C4CCC(=O)NC4=O)C5=O)CC3)s2)o1 (configuration not stated) >= 0.4?
-- reply not fulfilled

-- ask Decide: Growth Rate of Cc1ccc(-c2c(C(=O)CF)n(CCCO)c3ncnc(N)c23)cc1 >= 0.4?
-- reply not fulfilled

-- ask Decide: Growth Rate of C[C@H]1CN(C2COC2)CCN1c1ccc(Nc2cc(-c3ccnc(N4CCn5c(cc6c5CC(C)(C)C6)C4=O)c3CO)cn(C)c2=O)nc1 >= 0.4?
-- reply fulfilled

-- ask Decide: Growth Rate of Cc1cn(CCN2CCN(c3ccccc3-c3cc(C#N)cc(C(=O)NCCCN4CCCC4)c3)CC2)c2ccccc12 >= 0.4?
-- reply not fulfilled

-- ask Decide: Growth Rate of Cc1nc2ccc(Oc3ccc(F)cc3)cc2c(=O)n1C[C@H]1CCCN(C(C)C)C1.Cl >= 0.4?
-- reply fulfilled

-- ask Decide: Growth Rate of Cn1c2ccccc2c2c3c(c4c5ccccc5n(CCC#N)c4c21)CNC3=O >= 0.4?
-- reply fulfilled

-- ask Decide: Growth Rate of CC[C@](C)(O)C#Cc1cc2c(ccn2-c2cc(OC)nc(N)n2)cn1 >= 0.4?
-- reply not fulfilled
